Known Kd of a selection of binders
Biological target: T1, CCL17_HUMAN (human, UniProt Q92583 24-94)
T1 chain: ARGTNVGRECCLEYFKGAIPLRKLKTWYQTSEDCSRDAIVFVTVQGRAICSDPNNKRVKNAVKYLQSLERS
Test: BLI

# binder, Kd / nM
measured = [
    ("P974_AMBCA (other) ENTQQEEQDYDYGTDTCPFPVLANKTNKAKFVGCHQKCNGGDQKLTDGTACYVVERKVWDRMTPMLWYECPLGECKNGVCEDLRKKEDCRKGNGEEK", 70.6),
    ("P991_AMBCA (other) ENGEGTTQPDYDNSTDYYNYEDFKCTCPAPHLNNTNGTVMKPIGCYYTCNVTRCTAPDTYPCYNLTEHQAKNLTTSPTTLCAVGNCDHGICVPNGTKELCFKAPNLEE", 7.66),
    ("P546_AMBCA (other) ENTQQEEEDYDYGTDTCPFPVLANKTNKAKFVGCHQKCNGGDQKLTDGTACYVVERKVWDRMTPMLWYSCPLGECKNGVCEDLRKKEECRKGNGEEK", 70),
]

These data points were gathered from patent US20220175942A1.
